assay: basal RPMI8226 mitochondrial membrane potential changes, profiling panel, cell-based, JC-1 fluorescence, 24 h, 100 nL compound (AID 1169); conditions: RPMI8226 myeloma, JC-1 mitochondrial potential fluorescence, higher = more signal; note: test concentration not given here

molecule	z-score
CC(=O)OC[C@H]1O[C@H](CC=NOC(C)CN2CCCc3nc(C)c(C)cc32)C=C[C@@H]1OC(C)=O (stereo partly specified)	-0.131
CCOC(=O)CCN1C(=O)[C@H]2[C@H]3[C@H](O)[C@H](O)CC(=NO[C@@H]4O[C@H](CO)[C@@H](O)[C@H](O)[C@H]4O)[C@@H]3CC[C@H]2C1=O	0.577
CC(CCC(=O)OC[C@H]1O[C@H](C#Cc2ccccc2)C=C[C@@H]1Oc1ccc(C)cc1)=NOC(C)CN1CCCCc2nc(C)c(C)cc21 (stereo partly specified)	-0.325
CCN1C(=O)[C@H]2[C@H]3[C@H](O)[C@H](O)CC(=NNC(=O)OCc4ccccc4)[C@@H]3CC[C@H]2C1=O	-0.118
O=C1CCCC=C1C(O)COCc1ccccc1 (stereo unspecified)	0.728
CO[C@H]1COC(=O)[C@H](CCSC)NC(=O)CC=C[C@@H](C)[C@H](OC)COC(=O)[C@@H](OCc2ccccc2)C=C[C@@H]1C	0.759
CO[C@@H]1COC(=O)[C@@H]2CCCN2C(=O)[C@@H](C)COC(=O)CCC[C@H]1C	-0.0065
COc1ccc(O[C@H]2C=C[C@@H](c3ccccc3)O[C@@H]2COC(=O)NCc2cccc3ccccc23)cc1	0.396
CC(C)[C@@H](OCc1ccccc1)[C@H](C)C=NO[C@@H](C)c1cn([C@H](CO)Cc2ccccc2)nn1	0.362
CC(C)(C)N1C(=O)[C@H]2[C@H]3[C@H](O)[C@H](O)CC(=NOC[C@@H](O)COCc4ccco4)[C@H]3CC[C@H]2C1=O	-0.631
CC(C)CON=C1[C@H]2CCn3c(=O)n(C)c(=O)n3[C@H]2[C@H](O)[C@@H]2O[C@H]12	-0.581
CCOC(=O)[C@H](Cc1ccccc1)NC(=O)CCC1CC(OC(=O)NCc2ccc3c(c2)OCO3)CC2(CCCC(COC(=O)NCCOC)O2)O1 (stereo partly specified)	-0.817
CON=C1c2cc(OC)ccc2O[C@H](c2cccc(OC)c2)[C@H]1O	-0.0443
CCN1C(=O)[C@H]2[C@H]3[C@H](O)[C@H](O)CC(=NOC(C)CN4CCCc5nc(C)c(C)cc54)[C@@H]3CC[C@H]2C1=O (stereo partly specified)	0.534
C=CC[C@@H]1C=CC(ON=C(C)C)[C@@H](CO)O1 (stereo partly specified)	0.00663
CC(CCN1CCc2nc(-c3ccccc3)c(-c3ccccc3)cc2C1)=NO[C@@H](C)c1cc(-c2c(C)cc(C)cc2C)no1	-0.535

---

molecular target: Dickkopf-related protein 1 (Homo sapiens) (UniProt O94907); experiment: DKK1 binders on small-molecule microarrays, primary screen, biochemical, small-molecule microarray, 635 nm fluorescence scan (AID 1106); conditions: DKK1 binding, higher = more signal;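 note: score merges emission near 667 nm with signal to noise over three replicate slides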
Sequence (O94907 whole entry, looked up): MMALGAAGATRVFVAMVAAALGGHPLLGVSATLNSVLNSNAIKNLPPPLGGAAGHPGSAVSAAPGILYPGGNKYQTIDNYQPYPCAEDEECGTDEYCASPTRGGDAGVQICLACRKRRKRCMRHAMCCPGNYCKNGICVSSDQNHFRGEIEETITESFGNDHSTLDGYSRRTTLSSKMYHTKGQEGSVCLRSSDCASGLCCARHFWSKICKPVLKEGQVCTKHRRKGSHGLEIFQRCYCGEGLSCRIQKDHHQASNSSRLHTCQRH
quantityName: composite z-score

molecule	result
CC(=O)OC[C@H]1O[C@H](CC=NOC(C)CN2CCCCc3nc(C)c(C)cc32)C=C[C@@H]1OC(C)=O (stereo partly drawn)	1.68
O=C1C=C[C@@H](O)[C@@H]2[C@@H]3C(=O)N(Cc4ccccc4)C(=O)[C@@H]3CC[C@@H]12	0.232
CC(CCN1CCCc2nc(C)c(C)cc21)=NO[C@H](C)c1cn([C@H](CO)Cc2ccccc2)nn1	0.935
O=C1C[C@@H](O)[C@@H](O)[C@@H]2[C@@H]3C(=O)N(Cc4ccccc4)C(=O)[C@@H]3CC[C@H]12	0.608
C#CCCCON=C1[C@H]2CCn3c(=O)n([C@@H](CC)c4ccccc4)c(=O)n3[C@H]2[C@H](O)[C@@H]2O[C@H]12	0.209
CO[C@@H]1[C@H](O)CO[C@H]1C=Cc1ccccc1	0.365
COC(=O)[C@H](C)NC(=O)CC=C[C@@H](C)[C@@H]1C=C[C@H](O)[C@@H](CO)O1	1.3
C[C@@H](c1ccccc1)N1C(=O)[C@H]2[C@H]3[C@H](O)[C@H](O)CC(=NOCc4ccccc4)[C@@H]3CC[C@H]2C1=O	-1

---

Reported composite z-score by item:
test: binders of probe aHhip on microarray, primary screen, stem cell growth factor project, biochemical, small-molecule microarray, fluorescence 635/667 (AID 1087); settings: higher = more signal;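 note: score merges spot fluorescence at 667nm with spot signal to noise ratio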
quantityName: composite z-score

compound	quantityName	result
CCN1C(C)=C(C(=O)OC)[C@@H](c2ccccc2)N2C(=O)[C@](O)(C(=O)OC)CC(C(C)=O)=C12	composite z-score	-0.0618
O=C(NN=C1C[C@@H](O)[C@@H](O)[C@@H]2[C@@H]3C(=O)N(Cc4ccccc4)C(=O)[C@@H]3CC[C@H]12)OCc1ccccc1	composite z-score	0.0373
CC(C)(C)N1C(=O)[C@H]2[C@H]3[C@H](O)[C@H](O)CC(=NOC[C@@H](O)COCc4ccco4)[C@H]3CC[C@H]2C1=O	composite z-score	-0.0003
COCC#Cc1ccc([C@@H]2N[C@H](C(=O)O)CC[C@H]2C)cc1	composite z-score	0.132
CO[C@H]1COC(=O)CCC[C@H](C)[C@H](OC)COC(=O)CC=C[C@@H]1C	composite z-score	0.0922
CCOC(=O)CCN1C(=O)[C@H]2[C@H]3[C@H](O)[C@H](O)CC(=NOCC(C)C)[C@@H]3CC[C@H]2C1=O	composite z-score	-0.0994
CC(C)[C@H](NC(=O)OC(C)(C)C)[C@@H](O)CC(=O)C(C)(C)C	composite z-score	0.107
CC(C)CON=C1C[C@@H](O)[C@@H](O)[C@@H]2[C@@H]3C(=O)N(Cc4ccccc4)C(=O)[C@@H]3CC[C@H]12	composite z-score	-0.204
CC(C)(C)N1C(=O)[C@H]2[C@H]3[C@H](O)[C@H](O)CC(=NNC(=O)OCc4ccccc4)[C@@H]3CC[C@H]2C1=O	composite z-score	-0.161
CCOC(=O)[C@H](CC(C)C)NC(=O)CCC1CC(OC(=O)NCc2ccc3c(c2)OCO3)CC2(CCCC(COC(=O)NCc3ccccc3)O2)O1 (stereo partly specified)	composite z-score	-0.0994
COC(=O)[C@@H]1CC[C@H](C)[C@@H](c2ccc(C)cc2)N1C(=O)c1ccc(C=NOC[C@@H](O)[C@H]2O[C@@H]3OC(C)(C)O[C@@H]3[C@H]2O)cc1	composite z-score	-0.271
COc1ccc(COC(=O)NN=C2C[C@@H](O)[C@@H](O)[C@@H]3[C@@H]4C(=O)N(C[C@@H]5CCCO5)C(=O)[C@@H]4CC[C@H]23)cc1	composite z-score	0.0106
CCOC(=O)NN=C1C[C@@H](O)[C@@H](O)[C@@H]2[C@@H]3C(=O)N(CC)C(=O)[C@@H]3CC[C@H]12	composite z-score	-0.153
CO[C@@H](C1CCCCC1)[C@@H](C)[C@H](OCc1cccc(Br)c1)[C@@H](C)CO	composite z-score	-0.0173
CC(C)[C@@H](OCc1ccccc1)[C@H](C)C=NOC[C@@H](O)[C@H]1O[C@@H]2OC(C)(C)O[C@@H]2[C@H]1O	composite z-score	-0.0645
COc1ccc(OC[C@H]2CN3[C@@H](CC[C@@H](C)[C@@H]3c3ccc(Br)cc3)C(=O)O2)cc1	composite z-score	-0.109

---

target: Carbonic anhydrase 2 (Homo sapiens); test: CAII small-molecule binders, profiling panel, biochemical, small-molecule microarray, Alexa647-labelled CAII (AID 1122); conditions: CAII-A647 binding fluorescence, higher = more signal
Record criterion met whenever composite z-score is at -0.2 or higher; record criterion not met when lower.

molecule	testedSystem	assignedCategory
O=C1C2=CC[C@H]3C(=O)N(c4ccc(F)cc4F)C(=O)[C@H]3[C@H]2[C@H](O)[C@@H]2O[C@H]12	Carbonic anhydrase 2 (Homo sapiens)	criterion met
C[C@@H]1C=CCC(=O)OC[C@H](C)C(=O)N[C@@H](Cc2ccccc2)C(=O)OC1	Carbonic anhydrase 2 (Homo sapiens)	criterion met
O=C1C=C[C@@H](O)[C@@H]2[C@@H]3C(=O)N(c4cccc(Oc5ccccc5)c4)C(=O)[C@@H]3CC[C@@H]12	Carbonic anhydrase 2 (Homo sapiens)	criterion met
COc1ccc(O[C@H]2C=C[C@@H](c3ccccc3)O[C@@H]2CON=C(C)CCN2CCCc3nc(C)c(C)cc32)cc1	Carbonic anhydrase 2 (Homo sapiens)	criterion met
CC(C)(C)N1C(=O)[C@H]2[C@H]3[C@H](O)[C@H](O)CC(=NNC(=O)OCc4ccccc4)[C@H]3CC[C@H]2C1=O	Carbonic anhydrase 2 (Homo sapiens)	criterion met
CC(=O)OC[C@H]1O[C@H](CCON=C(C)C)C=C[C@@H]1OC(C)=O	Carbonic anhydrase 2 (Homo sapiens)	criterion met
CC(=O)OC[C@H]1O[C@@H](ON=C(C)CCN2CCCCc3nc(C)c(C)cc32)[C@H](OC(C)=O)[C@@H](OC(C)=O)[C@@H]1OC(C)=O	Carbonic anhydrase 2 (Homo sapiens)	criterion met
CO[C@H]1COC(=O)[C@H](C)COC(=O)[C@@H](OCc2ccccc2)C=C[C@@H]1C	Carbonic anhydrase 2 (Homo sapiens)	criterion not met
CC(=O)OC[C@H]1O[C@H](CC=NO[C@@H](C)c2cc(-c3c(C)cc(C)cc3C)no2)C=C[C@@H]1OC(C)=O	Carbonic anhydrase 2 (Homo sapiens)	criterion not met
CC(C)C(=O)N[C@H]1CCCN1C(=O)C=Cc1ccccc1	Carbonic anhydrase 2 (Homo sapiens)	criterion met
COCCNC(=O)OCC1CCCC2(CC(OC(=O)NCc3cccc4ccccc34)CC(CCC(=O)N[C@@H](C)C(=O)OC)O2)O1 (stereo partly specified)	Carbonic anhydrase 2 (Homo sapiens)	criterion met
COc1ccc(COC(=O)NN=C2C[C@@H](O)[C@@H](O)[C@@H]3[C@@H]4C(=O)N(Cc5ccc6c(c5)OCO6)C(=O)[C@@H]4CC[C@H]23)cc1	Carbonic anhydrase 2 (Homo sapiens)	criterion not met
CC(CCN1CCCCc2nc(C)c(C)cc21)=NOC[C@@H](O)[C@H]1O[C@@H]2OC(C)(C)O[C@@H]2[C@H]1O	Carbonic anhydrase 2 (Homo sapiens)	criterion not met
C[C@@H](c1ccccc1)N1C(=O)[C@H]2[C@H]3[C@H](O)[C@H](O)CC(=NOC[C@@H](O)COCc4ccco4)[C@H]3CC[C@H]2C1=O	Carbonic anhydrase 2 (Homo sapiens)	criterion not met
CC(C)CON=C1[C@H]2CCn3c(=O)n(C)c(=O)n3[C@H]2[C@H](O)[C@@H]2O[C@H]12	Carbonic anhydrase 2 (Homo sapiens)	criterion met
